- TEST DETAILS: chemical genetic growth profiling, strain panel (AID 1159580);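 also: tested at 20 µM; growth read once vehicle control cultures reached saturation at 30 °C; lower values mean less growth of the strain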
- TEST SETTINGS: S. cerevisiae deletion strains, growth OD, locus YPL106C, strain sse1
About 2,000 (36%) of roughly 5,500 compounds were called active. Another 18% or so got no clear call; they are omitted. Rule as the data show it: active = normalized growth mostly below about 0.91 (no sharp cut-off); inconclusive = no clear call, values can overlap the other calls; inactive = mostly above about 0.92. The list shows a part of the results.
In this exercise, the only acceptable responses are active, inactive

Exercise: // return assay outcome for C[C@H]1[C@H]2CCC3C4CC=C5C[C@@H](N(C)C)CC[C@]5(C)C4CC[C@@]32CN1C (stereo partly specified)
Solution: inactive

Exercise: // return assay outcome for CCCCC(CC)CN1CN(CC(CC)CCCC)CC(C)(N)C1 (stereo unspecified)
Solution: active

Exercise: // return assay outcome for `O=C(O)CF`
Solution: inactive

Exercise: // return assay outcome for CC(C)NCC(O)c1ccc2ccccc2c1 (stereo unspecified)
Solution: inactive

Exercise: // return assay outcome for `O=C1C=CC2=C3c4cc(O)c(O)cc4C[C@@]3(O)COC2=C1`
Solution: inactive

Exercise: // return assay outcome for `Cc1occc(=O)c1O`
Solution: inactive

* * *

- TEST DETAILS: chemical genetic growth profiling, strain panel (AID 1159580);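 also: tested at 20 µM; growth read once vehicle control cultures reached saturation at 30 °C; lower values mean less growth of the strain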
- TEST SETTINGS: S. cerevisiae deletion strains, growth OD, locus YDR162C, strain NBP2
The campaign covered roughly 5,500 compounds. About 2,000 (36%) were called active. About 18% were inconclusive and are not listed. Rule as the data show it: active = normalized growth mostly below about 0.91 (no sharp cut-off); inconclusive = no clear call, values can overlap the other calls; inactive = mostly above about 0.92. The list shows a part of the results.
In this exercise, the only acceptable responses are Y (active), N (inactive)

Some solved cases for reference:
[[record]]
compound = "CCCc1occc(=O)c1/C=C/O"
category_label = "N"

[[record]]
compound = "Cc1occc(=O)c1/C=C/O"
category_label = "N"

[[record]]
compound = "CC(=O)OC1CC(OC(C)=O)C2(C)C(CC(OC(C)=O)C3(C)C2CCC2(C)C(c4ccoc4)CC4OC423)C1(C)C (configuration not stated)"
category_label = "N"

[[record]]
compound = "NCCNC(=O)c1ccc(Cl)cc1"
category_label = "N"

[[record]]
compound = "CN1C(CC(=O)c2ccccc2)CCCC1CC(O)c1ccccc1 (configuration not stated)"
category_label = "N"


Okay, next one:
Exercise: // return assay outcome for C=CC(C1=CC(=O)C(OC)=CC1=O)c1ccccc1 (configuration not stated)
Solution: Y

* * *

- TEST DETAILS: chemical genetic growth profiling, strain panel (AID 1159580);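 also: tested at 20 µM; growth read once vehicle control cultures reached saturation at 30 °C; lower values mean less growth of the strain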
- TEST SETTINGS: S. cerevisiae deletion strains, growth OD, locus YGR252W, strain gcn5
About 2,000 (36%) of roughly 5,500 compounds were called active. Inconclusive results (about 18%) are left out. Rule as the data show it: active = normalized growth mostly below about 0.91 (no sharp cut-off); inconclusive = no clear call, values can overlap the other calls; inactive = mostly above about 0.92. Some of the results follow.
In this exercise, the only acceptable responses are true (active), false (inactive)

Some solved cases for reference:
[[record]]
molecule = "CN/C(=C\\[N+](=O)[O-])NCCSCc1ccc(CN(C)C)o1"
category_label = "false"

[[record]]
molecule = "Nc1ccc(C(=O)NCC(=O)O)cc1"
category_label = "false"

[[record]]
molecule = "C1CCN2C[C@@H]3C[C@H](CN4CCCC[C@@H]34)[C@H]2C1"
category_label = "false"

[[record]]
molecule = "Cc1ccc(/C(=C\\CN2CCCC2)c2ccccn2)cc1"
category_label = "false"

[[record]]
molecule = "COc1c2c(cc3c1OCO3)CCN(C)C2"
category_label = "false"

[[record]]
molecule = "CC(=O)OC1CC(OC(C)=O)C2(C)C(CC(OC(C)=O)C3(C)C2CCC2(C)C(c4ccoc4)CC4OC423)C1(C)C (stereo unspecified)"
category_label = "false"

[[record]]
molecule = "CSCCC(NC=O)C(=O)NC(C)C(=O)O (stereo unspecified)"
category_label = "false"

[[record]]
molecule = "CC1(C)C(=O)C=C[C@@]2(C)C1=C(O)C(=O)[C@]1(C)C2CC[C@@]2(C)[C@H](c3ccoc3)C[C@H]3O[C@]321 (stereo partly specified)"
category_label = "true"

[[record]]
molecule = "O=C(O)/C=C/C=C/c1ccccc1"
category_label = "true"

[[record]]
molecule = "c1ccc2c3c([nH]c2c1)CNCC3"
category_label = "false"


Exercise: // return assay outcome for O=C1C=CC2=C3c4cc(O)c(O)cc4CC3(O)COC2=C1O (stereo unspecified)
Solution: false

Exercise: // return assay outcome for CC(C)NCC(O)c1ccc(O)c(O)c1 (stereo unspecified)
Solution: false
